This collection of values is drawn from patent US9975885B2.

targetDesc: PEDV-3CL^pro (Porcine epidemic diarrhea virus (strain CV777) (PEDV))
Sequence (P0C6Y4 2998-3299 limits assumed): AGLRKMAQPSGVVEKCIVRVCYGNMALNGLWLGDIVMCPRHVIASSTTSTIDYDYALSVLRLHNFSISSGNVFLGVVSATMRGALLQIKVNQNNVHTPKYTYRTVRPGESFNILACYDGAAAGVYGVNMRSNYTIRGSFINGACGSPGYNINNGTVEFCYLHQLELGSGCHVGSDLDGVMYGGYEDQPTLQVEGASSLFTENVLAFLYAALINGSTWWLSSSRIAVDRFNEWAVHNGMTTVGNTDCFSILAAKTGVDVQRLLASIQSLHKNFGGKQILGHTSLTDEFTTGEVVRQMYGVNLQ
testName: biochemical
pIC50: −log10 of the molar value.

[
  {
    "compound": "CC(C)Cc1ccc(N(C(=O)c2c[nH]cn2)C(C(=O)NC(C)(C)C)c2cccnc2)cc1 (stereo not drawn)",
    "pIC50": 4.81
  },
  {
    "compound": "CC(C)CNC(=O)C(c1cccnc1)N(C(=O)c1c[nH]cn1)c1ccc(C(C)(C)C)cc1 (stereo not drawn)",
    "pIC50": 5.80
  },
  {
    "compound": "CC(C)(C)NC(=O)C(c1cccnc1)N(C(=O)c1c[nH]cn1)c1ccc(C2CCC2)cc1 (stereo not drawn)",
    "pIC50": 4.95
  }
]
